Entry source: ChEMBL document CHEMBL3098101

biological target: CDK2/Cyclin A2 (Homo sapiens); test: Inhibition of human recombinant CDK2/cyclin A using fluoresceinyl-Ahx-Pro-Val-Lys-Arg-Arg-Leu-Phe-Gly as substrate after 45 mins by fluorescence polarization assay
Where a SMILES comes first, the peptide text is derived from it. [ ]: non-standard residue; d: D form. The star is where a group is joined. Phe(4-F) = N[C@@H](Cc1ccc(F)cc1)C(=O)O; X14 = O=C(c1csc(-c2ccsc2)n1)*; X10 = CCOc1cccc(C(=O)*)n1
PROPERTY: IC50 (µM)
The figure you give is taken to be in µM; do not add the unit.

molecule="CCOc1cccc(C(=O)N[C@@H](CCCNC(=N)N)C(=O)N[C@@H](CC(C)C)C(=O)N[C@@H](CC(N)=O)C(=O)N[C@@H](Cc2ccc(F)cc2)C(=O)O)n1 (X10-RLN[Phe(4-F)]-OH)" test_result=39.7

Turning to the following molecule.
Data request: Quick one: IC50 of CC[C@H](C)[C@H](NC(=O)[C@H](CC(C)C)NC(=O)[C@H](CCCN=C(N)N)NC(=O)c1csc(-c2ccsc2)n1)C(=O)N[C@@H](Cc1ccccc1)C(=O)O (X14-RLIF-OH) ?
Data returned: 56.2

---

target: CDK2/Cyclin A2 (Homo sapiens); assay: Inhibition of human recombinant CDK2/cyclin A using fluoresceinyl-Ahx-Pro-Val-Lys-Arg-Arg-Leu-Phe-Gly as substrate after 45 mins by fluorescence polarization assay
Where a SMILES comes first, the peptide text is derived from it. [ ]: non-standard residue; d: D form. The star is where a group is joined. Phe(4-F) = N[C@@H](Cc1ccc(F)cc1)C(=O)O; X13 = CN1CCN(Cc2ccc(C(=O)*)o2)CC1; X1 = Cc1cnn(Cc2ccc(C(=O)*)o2)c1; X9 = CCCOc1ccc(CC(=O)*)cc1
PROPERTY: IC50

compound="CC[C@H](C)[C@H](NC(=O)[C@H](CC(C)C)NC(=O)[C@H](CCCNC(=N)N)NC(=O)c1ccc(CN2CCN(C)CC2)o1)C(=O)N[C@@H](Cc1ccccc1)C(=O)O (X13-RLIF-OH)" target_under_test="CDK2/Cyclin A2 (Homo sapiens)" test_result="50.3 µM"
compound="CCCOc1ccc(CC(=O)N[C@@H](CCCN=C(N)N)C(=O)N[C@@H](CC(C)C)C(=O)N[C@@H](CC(N)=O)C(=O)N[C@@H](Cc2ccc(F)cc2)C(=O)O)cc1 (X9-RLN[Phe(4-F)]-OH)" target_under_test="CDK2/Cyclin A2 (Homo sapiens)" test_result="> 100 µM"

Data request: Request body: readout IC50, system CDK2/Cyclin A2 (Homo sapiens), query CC[C@H](C)[C@H](NC(=O)[C@H](CC(C)C)NC(=O)[C@H](CCCN=C(N)N)NC(=O)c1ccc(Cn2cc(C)cn2)o1)C(=O)N[C@@H](Cc1ccccc1)C(=O)O (X1-RLIF-OH) . Return the value.
Data returned: > 100 µM

---

pIC50 listing for selected molecules.
target: Cyclin-dependent kinase 4/cyclin D1 (Homo sapiens); experiment: Inhibition of human recombinant CDK4/cyclin D1 using fluoresceinyl-Ahx-Pro-Val-Lys-Arg-Arg-Leu-(3ClPhe)-Gly as substrate after 45 mins by fluorescence polarization assay
Sequence (P11802 whole entry): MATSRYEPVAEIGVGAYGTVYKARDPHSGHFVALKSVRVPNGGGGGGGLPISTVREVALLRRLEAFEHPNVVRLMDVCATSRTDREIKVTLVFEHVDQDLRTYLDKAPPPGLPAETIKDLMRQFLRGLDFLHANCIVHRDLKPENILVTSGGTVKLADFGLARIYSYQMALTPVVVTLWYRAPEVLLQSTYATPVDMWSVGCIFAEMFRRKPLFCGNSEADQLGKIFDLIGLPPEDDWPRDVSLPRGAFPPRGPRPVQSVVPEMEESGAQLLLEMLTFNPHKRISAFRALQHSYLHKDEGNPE
Sequence (P24385 whole entry): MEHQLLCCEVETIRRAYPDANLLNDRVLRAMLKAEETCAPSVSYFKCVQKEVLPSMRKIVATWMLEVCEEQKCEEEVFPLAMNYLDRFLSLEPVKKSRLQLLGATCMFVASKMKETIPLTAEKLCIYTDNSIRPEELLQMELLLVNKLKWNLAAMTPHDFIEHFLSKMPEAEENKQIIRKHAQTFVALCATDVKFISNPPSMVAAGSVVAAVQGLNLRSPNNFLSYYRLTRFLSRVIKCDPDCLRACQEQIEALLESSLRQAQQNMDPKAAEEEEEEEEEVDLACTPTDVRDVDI
Where a SMILES comes first, the peptide text is derived from it. [ ]: non-standard residue; d: D form. The star is where a group is joined. Phe(4-F) = N[C@@H](Cc1ccc(F)cc1)C(=O)O; X13 = CN1CCN(Cc2ccc(C(=O)*)o2)CC1; X15 = CCOc1ccc(CC(=O)*)cc1OCC; X4 = O=C(c1ccc(Cn2ccnc2)o1)*
# pIC50 = -log10(concentration in molar units)

Recorded results for 2 molecules are shown here.
molecule="CC[C@H](C)[C@H](NC(=O)[C@H](CC(C)C)NC(=O)[C@H](CCCN=C(N)N)NC(=O)c1ccc(Cn2ccnc2)o1)C(=O)N[C@@H](Cc1ccccc1)C(=O)O (X4-RLIF-OH)" target_under_test="Cyclin-dependent kinase 4/cyclin D1 (Homo sapiens)" property=pIC50 test_result=3.80
molecule="CCOc1ccc(CC(=O)N[C@@H](CCCNC(=N)N)C(=O)N[C@@H](CC(C)C)C(=O)N[C@@H](CC(N)=O)C(=O)N[C@@H](Cc2ccc(F)cc2)C(=O)O)cc1OCC (X15-RLN[Phe(4-F)]-OH)" target_under_test="Cyclin-dependent kinase 4/cyclin D1 (Homo sapiens)" property=pIC50 test_result=5.52

Turning to the following molecule.
Data request: Quick one: pIC50 of CC[C@H](C)[C@H](NC(=O)[C@H](CC(C)C)NC(=O)[C@H](CCCNC(=N)N)NC(=O)c1ccc(CN2CCN(C)CC2)o1)C(=O)N[C@@H](Cc1ccccc1)C(=O)O (X13-RLIF-OH) ?
Data returned: 4.36
